target: eqBuChE (Equus caballus); construct: equine serum butyrylcholinesterase (eqBuChE); assay: Kinetic study for the inhibition of eqBuChE (Lineweaver-Burk); conditions: Lineweaver-Burk; read-out: Ki (inhibitory constant)
Sequence (P81908 whole entry): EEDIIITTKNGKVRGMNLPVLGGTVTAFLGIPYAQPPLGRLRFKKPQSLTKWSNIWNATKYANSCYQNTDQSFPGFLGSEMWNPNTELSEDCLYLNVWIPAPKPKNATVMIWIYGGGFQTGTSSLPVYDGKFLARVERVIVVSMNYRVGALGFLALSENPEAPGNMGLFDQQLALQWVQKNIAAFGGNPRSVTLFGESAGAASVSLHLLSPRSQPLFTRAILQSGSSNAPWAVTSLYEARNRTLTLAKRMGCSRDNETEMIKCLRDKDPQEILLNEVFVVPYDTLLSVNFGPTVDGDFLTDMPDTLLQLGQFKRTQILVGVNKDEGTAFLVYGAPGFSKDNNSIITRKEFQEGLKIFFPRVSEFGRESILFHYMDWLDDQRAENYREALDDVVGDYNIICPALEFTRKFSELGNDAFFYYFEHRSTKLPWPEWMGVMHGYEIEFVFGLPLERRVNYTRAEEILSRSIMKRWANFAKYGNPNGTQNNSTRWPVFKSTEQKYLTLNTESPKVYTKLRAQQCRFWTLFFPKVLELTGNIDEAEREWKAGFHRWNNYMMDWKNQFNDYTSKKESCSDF
Ki by entry:
metric: Ki (µM)

>>> df
                                 mol_smiles  unit_info  test_result
0  COc1cc(OC)c2c(=O)c(OCCCCn3cc(CN4C(=O)C(=O)c5ccccc54)nn3)c(-c3ccc(OC)c(OC)c3)oc2c1         µM          6.2
1  CC(C)(O)c1cn(CCCCOc2c(-c3ccc(O)c(O)c3)oc3cc(O)cc(O)c3c2=O)nn1         µM           36
2  O=c1c(OCCCCn2cc(C3CC3)nn2)c(-c2ccc(O)c(O)c2)oc2cc(O)cc(O)c12         µM           30

* * *

molecular target: eqBuChE (Equus caballus); construct: equine serum butyrylcholinesterase (eqBuChE); purchased Sigma-Aldrich (lyophilized powder, 10.9 U/mg); host or cells: equine serum; assay: Ellman cholinesterase inhibitory assay, eqBuChE (screening and IC50); format: biochemical; settings: concentration range 1.2-300 µM; BTCI 0.8 mM; read-out: IC50 values for eqBuChE
pIC50: −log10 of the molar value.
metric: pIC50

>>> df
                                  mol_smiles  metric  qualifier  test_result
 0  O=c1c(OCCCCn2cc(C3CC3)nn2)c(-c2ccc(O)c(O)c2)oc2cc(O)cc(O)c12   pIC50          =         4.49
 1  O=c1c(OCCCCn2cc(C3(O)CCCC3)nn2)c(-c2ccc(O)c(O)c2)oc2cc(O)cc(O)c12   pIC50          =         4.18
 2  COc1cc(OC)c2c(=O)c(OCCCCn3cc(C4(O)CCCC4)nn3)c(-c3ccc(OC)c(OC)c3)oc2c1   pIC50          <         3.52
 3  Cc1ccc(C(C)C)c(OCc2cn(CCCCOc3c(-c4ccc(O)c(O)c4)oc4cc(O)cc(O)c4c3=O)nn2)c1   pIC50          <         3.82
 4  COc1cc(OC)c2c(=O)c(OCCCCn3cc(C4CC4)nn3)c(-c3ccc(OC)c(OC)c3)oc2c1   pIC50          <         3.52
 5  COc1cc(OC)c2c(=O)c(OCCCCn3cc(CO)nn3)c(-c3ccc(OC)c(OC)c3)oc2c1   pIC50          <         3.52
 6  COc1cc(OC)c2c(=O)c(OCCCCn3cc(CN4C(=O)C(=O)c5ccccc54)nn3)c(-c3ccc(OC)c(OC)c3)oc2c1   pIC50          =         4.95
 7  COc1cc(OC)c2c(=O)c(OCCCCn3cc(C(C)(C)N)nn3)c(-c3ccc(OC)c(OC)c3)oc2c1   pIC50          =         4.15
 8  CCCc1cn(CCCCOc2c(-c3ccc(OC)c(OC)c3)oc3cc(OC)cc(OC)c3c2=O)nn1   pIC50          <         3.52
 9  CC(C)(O)c1cn(CCCCOc2c(-c3ccc(O)c(O)c3)oc3cc(O)cc(O)c3c2=O)nn1   pIC50          =         4.41
10  O=c1c(OCCCCn2cc(-c3ccccc3)nn2)c(-c2ccc(O)c(O)c2)oc2cc(O)cc(O)c12   pIC50          =         4.61
11  COc1cc(OC)c2c(=O)c(OCCCCn3cc(-c4ccccc4)nn3)c(-c3ccc(OC)c(OC)c3)oc2c1   pIC50          <         3.52
12  COc1cc(OC)c2c(=O)c(OCCCCn3cc(C(C)(C)O)nn3)c(-c3ccc(OC)c(OC)c3)oc2c1   pIC50          <         3.52
13  COc1cc(OC)c2c(=O)c(OCCCCn3cc(COc4cc(C)ccc4C(C)C)nn3)c(-c3ccc(OC)c(OC)c3)oc2c1   pIC50          =         4.58

These data points were gathered from paper PMC10673615.
